Tested on: LNCaP cells
assay_overview: CellTiter Blue cytotoxicity assay
Assay type: cell-based
measurement_context: 72 hours incubation, read-out: IC50 (cytotoxic action in vitro)

>  <compound>
CCC(C)C(C(CC(=O)N1CCCC1C(OC)C(C)C(=O)NC(C)C(O)c1ccccc1)OC)N(C)C(=O)C(NC(=O)C(C(C)C)N(C)C(=O)OCc1ccc(NC(=O)C(CCCNC(N)=O)NC(=O)C(Nc2c(NCC3CCC(C(=O)NC(Cc4ccc5ccccc5c4)C(=O)NCCCCC(NC(=O)NC(CCC(=O)O)C(=O)O)C(=O)O)CC3)c(=O)c2=O)C(C)C)cc1)C(C)C (stereo not shown) [MMAE.ValCit.QS.617.KuE]

>  <IC50 / nM>
32.2

$$$$
